- Test system: MDA-MB-231 breast
- method-summary: NCI tumour cell line growth inhibition, 48 h; in the data active = GI50 below about 0.43 µM; inactive = the rest
Outcomes: active, inactive

1. Cc1ccc(OCCCCCCNCCO)c(C)c1; inactive
2. COC(=O)Nc1nc2ccc(Sc3ccc(NC(=O)Nc4cc(C(F)(F)F)ccc4F)cc3)cc2[nH]1; inactive
3. CCCCCCCCCCCCNC(=O)[C@H]1CSC(c2ccc(OC)c(F)c2)N1 (stereo not given in full); active
4. CC(=O)N[C@@H]1CCC[C@H](C(=O)Nc2cc(-c3cnn4c3CC(C)(C)C4)c(Cl)cn2)C1; active
5. CCOC(=O)C1=C(c2ccccc2)N(Cc2ccccc2)C2(O)C=CC(=O)C3C(=O)N(c4ccccc4)C(=O)C132 (stereo not given); inactive
6. OCCCCC#Cc1ccccc1C#Cc1cnccn1; inactive
7. Cn1c(COC(=O)NCCN2CCOCC2)nc2c(N3CCOCC3)nc(-c3ccccc3)nc21; inactive
8. CC1SC2(CCCCC2)N(NC(=O)c2[nH]c3ccc(F)cc3c2-c2ccccc2)C1=O (stereo not given); inactive
9. CN1C/C(=C\c2ccccc2[N+](=O)[O-])C(=O)/C(=C/c2ccccc2[N+](=O)[O-])C1; active
10. Nc1ncnc2c1ncn2Cc1ccc(C23CC4CC(CC(C4)C2)C3)c(O)c1; inactive
